EXPERIMENTAL SYSTEM: T1, human TGFβ2 (human, UniProt P61812 303-414)
T1 construct: also called TGFβ2 homodimer
T1 sequence: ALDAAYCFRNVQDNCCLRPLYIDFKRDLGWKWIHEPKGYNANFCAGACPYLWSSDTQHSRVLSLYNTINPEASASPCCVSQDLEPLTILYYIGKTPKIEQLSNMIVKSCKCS
PROTOCOL TEXT: Biacore off-rate vs wt GC1008
PARAMETER: kd mutant/kd wt

V55F (antibody, V domains shown, GC1008 IgG4 variant) VH: QVQLVQSGAEVKKPGSSVKVSCKASGYTFSSNVISWVRQAPGQGLEWMGGVIPIFDIANYAQRFKGRVTITADESTSTTYMELSSLRSEDTAVYYCASTLGLVLDAMDYWGQGTLVTVSS VL: ETVLTQSPGTLSLSPGERATLSCRASQSLGSSYLAWYQQKPGQAPRLLIYGASSRAPGIPDRFSGSGSGTDFTLTISRLEPEDFAVYYCQQYADSPITFGQGTRLEIK: 0.9
S31W (antibody, V domains shown, GC1008 IgG4 variant) VH: QVQLVQSGAEVKKPGSSVKVSCKASGYTFSWNVISWVRQAPGQGLEWMGGVIPIVDIANYAQRFKGRVTITADESTSTTYMELSSLRSEDTAVYYCASTLGLVLDAMDYWGQGTLVTVSS VL: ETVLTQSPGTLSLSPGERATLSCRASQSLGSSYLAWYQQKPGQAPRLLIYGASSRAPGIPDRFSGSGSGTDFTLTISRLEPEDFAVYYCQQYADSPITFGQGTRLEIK: 1.4
